pIC50: −log10 of the molar value.
Parameter 'readout' = pIC50; parameter 'system' = human PDE4D catalytic domain (Homo sapiens (Human), UniProt Q08499).
Sequence (Q08499 380-740 limits assumed): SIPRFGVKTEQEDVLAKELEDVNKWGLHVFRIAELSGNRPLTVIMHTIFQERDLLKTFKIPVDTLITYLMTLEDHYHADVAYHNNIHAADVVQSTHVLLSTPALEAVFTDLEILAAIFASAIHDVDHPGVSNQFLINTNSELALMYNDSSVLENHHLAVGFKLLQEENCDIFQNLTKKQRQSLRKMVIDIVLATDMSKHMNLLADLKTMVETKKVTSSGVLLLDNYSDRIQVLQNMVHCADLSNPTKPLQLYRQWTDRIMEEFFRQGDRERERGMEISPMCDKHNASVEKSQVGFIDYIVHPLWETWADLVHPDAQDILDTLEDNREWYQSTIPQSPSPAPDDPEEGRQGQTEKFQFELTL

Recorded results for 5 compounds are shown here.
Give recorded pIC50. CC1(Nc2nc(N3CC(c4cccnc4)C3)nc3c2[S@+]([O-])CC3)CCC1 7.30 to 8.00

Give recorded pIC50. [O-][S+]1CCc2nc(N3CC(c4cccc(F)c4)C3)nc(NC34CC(C3)C4)c21 (stereo in doubt) > 8.00

Give recorded pIC50. COC(=O)N1CCC[C@@H](Nc2nc(N3CC(Oc4ccc(F)cc4)C3)nc3c2[S@+]([O-])CC3)C1 > 8.00

Give recorded pIC50. [O-][S+]1CCc2nc(N3CC(c4ccccc4)C3)nc(NC34CC(C3)C4)c21 (stereo in doubt) > 8.00

Give recorded pIC50. COC(=O)N1CC[C@H](Nc2nc(N3CC(c4ccccc4)C3)nc3c2[S@+]([O-])CC3)C1 7.30 to 8.00

Need pIC50 for each of these compounds.
1. [O-][S+]1CCc2nc(N3CC(c4ccccn4)C3)nc(NC34CC(C3)C4)c21 (stereo in doubt)
2. [O-][S+]1CCc2nc(N3CC(c4ccccc4)C3)nc(NC3CCOCC3)c21 (stereo in doubt)

1: 7.30 to 8.00; 2: > 8.00

###

Provide the reported IC50 of each item.
- System: TNF-α release, human peripheral blood mononuclear cells (PBMC)
- Method Notes: TNF-α release in LPS-stimulated PBMC
- Format: cell-based
- Test Parameters: lipopolysaccharide stimulation for 18 hours, read-out: TNF-α IC50 range

Recorded results for 8 compounds are shown here.
Give recorded IC50. COC(=O)N1CCC[C@H](Nc2nc(N3CC(Oc4ccc(F)cc4)C3)nc3c2[S@+]([O-])CC3)C1 < 0.01 µM

Give recorded IC50. [O-][S+]1CCc2nc(N3CC(Oc4ccc(F)cc4)C3)nc(NC34CC(C3)C4)c21 (stereo in doubt) < 0.01 µM

Give recorded IC50. [O-][S+]1CCc2nc(N3CC(c4ccc(F)cc4)C3)nc(NC34CC(C3)C4)c21 (stereo in doubt) < 0.01 µM

Give recorded IC50. COC(=O)N1CC[C@@H](Nc2nc(N3CC(c4ccccc4)C3)nc3c2[S@+]([O-])CC3)C1 < 0.01 µM

Give recorded IC50. [O-][S+]1CCc2nc(N3CC(c4ccccn4)C3)nc(NC34CC(C3)C4)c21 (stereo in doubt) 0.01 to 0.05 µM

Give recorded IC50. [O-][S+]1CCc2nc(N3CC(Oc4ccc(F)cc4)C3)nc(NC3CCOCC3)c21 (stereo in doubt) < 0.01 µM

Give recorded IC50. [O-][S+]1CCc2nc(N3CC(c4cccc(F)c4)C3)nc(NC34CC(C3)C4)c21 (stereo in doubt) < 0.01 µM

Give recorded IC50. [O-][S+]1CCc2nc(N3CC(c4ccccc4)C3)nc(NC34CC(C3)C4)c21 (stereo in doubt) < 0.01 µM

Need IC50 for each of these compounds.
1. [O-][S+]1CCc2nc(N3CC(Oc4ccccc4)C3)nc(NC3CCOCC3)c21 (stereo in doubt)
2. [O-][S+]1CCc2nc(N3CC(Oc4cccnc4)C3)nc(NC34CC(C3)C4)c21 (stereo in doubt)
3. COC(=O)N1CCC[C@@H](Nc2nc(N3CC(Oc4ccc(F)cc4)C3)nc3c2[S@+]([O-])CC3)C1

["< 0.01 µM", "0.01 to 0.05 µM", "< 0.01 µM"]

Need IC50 for each of these compounds.
1. O=S1(=O)CC(Nc2nc(N3CC(c4ccccc4)C3)nc3c2[S@+]([O-])CC3)C1
2. O=S1(=O)CCC(Nc2nc(N3CC(c4ccccc4)C3)nc3c2[S+]([O-])CC3)CC1 (stereo in doubt)
3. CC1(Nc2nc(N3CC(c4ccccn4)C3)nc3c2[S@+]([O-])CC3)CCC1
4. COC(=O)N1CC[C@H](Nc2nc(N3CC(c4ccccc4)C3)nc3c2[S@+]([O-])CC3)C1

1: 0.01 to 0.05 µM; 2: < 0.01 µM; 3: < 0.01 µM; 4: 0.01 to 0.05 µM

Need IC50 for each of these compounds.
1. [O-][S+]1CCc2nc(N3CC(c4ccccc4)C3)nc(NC3CCOCC3)c21 (stereo in doubt)
2. CC1(Nc2nc(N3CC(c4cccnc4)C3)nc3c2[S@+]([O-])CC3)CCC1

< 0.01 µM
0.01 to 0.05 µM

The values you see were collected from patent US11292799B2.
